System: Sandhoff (HEXB) disease and Tay-Sachs (HEXA) disease patient fibroblasts
Assay: GM2 ganglioside accumulation (immunofluorescence) in Sandhoff and Tay-Sachs patient fibroblasts
Assay type: cell-based
Conditions: Homo sapiens, Fibroblast; GM2 aggregate counts (not mean fluorescence); Expmts 1936 and 1925; read-out: ED50 based on GM2 aggregate counts
Here, each record is paired with measured EC50 data.
Numbers only here, please. The scale is nM.

O=C1NC(=O)C(c2cnc3ccccn23)=C1c1cn2c3c(cc(F)cc13)CN(C(=O)N1CCCCC1)CC2 [LY2090314] | 8.76

// switching to the query molecule
## Task Recorded EC50 of N#Cc1ccc2[nH]c(O)c(-c3ccc(CN4CCOCC4)cn3)c2c1 [AZD1080] , please.
## Result 1590
